Listed below: IC50 values for each entry.
- Organism: Cavia porcellus
- protocol details: Inhibitory potency against platelet activating factor (PAF) induced bronchoconstriction in guinea pigs.
- Format: functional, organism-based

Field: example entries. Status: answers known.
1) CCCc1c(OCC(O)COc2ccc3c(=O)cc(C(=O)O)oc3c2CCC)ccc(C(C)=O)c1O (configuration not stated)    > 1 % conc
2) CCCc1c(OCCCCCOc2c(C(C)=O)ccc(OCC(=O)O)c2CCC)ccc(C(C)=O)c1O    1 % conc

// IC50 lookup, key: "CCCc1c(OCCCCCOc2c(C(C)=O)ccc(OCCCC(=O)O)c2CCC)ccc(C(C)=O)c1O"
> 1 % conc

// IC50 lookup, key: "CCCc1c(OCCOCCOCCOc2c(C(C)=O)ccc(OCC(=O)O)c2CCC)ccc(C(C)=O)c1O"
> 1 % conc

// IC50 lookup, key: "CCCc1c(OCCCOCCCOc2c(C(C)=O)ccc(OCCCC(=O)O)c2CCC)ccc(C(C)=O)c1O"
1 % conc

// IC50 lookup, key: "CCCc1c(OCCCOc2ccc3ccc(OCC(=O)O)cc3c2C(C)=O)ccc(C(C)=O)c1O"
> 1 % conc

// IC50 lookup, key: "CCCc1c(OCCOCCOCCOCCOc2c(C(C)=O)ccc(OCC(=O)O)c2CCC)ccc(C(C)=O)c1O"
> 1 % conc

====

- System: Cavia porcellus
- protocol details: In vivo inhibition of leukotriene-induced bronchoconstriction in guinea pigs following 10 mg/kg i.v. administration.
- Assay type: functional
- applied conditions: route intravenous
Values of inhibition in vivo at 10 mg/kg greater than or equal to 90% map to 1; values below map to -1.

Solved entries:
1. CCCc1c(OCCCOc2c(C(C)=O)ccc(OCC(=O)O)c2CCC)ccc(C(C)=O)c1O    1
2. CCCc1c(OCCOCCOCCOc2c(C(C)=O)ccc(OCC(=O)O)c2CCC)ccc(C(C)=O)c1O    -1
3. CCCc1c(OCCCOc2c(C(C)=O)ccc(OCCCC(=O)O)c2CCC)ccc(C(C)=O)c1O    1
4. CCCc1c(OCCCCCOc2c(C(C)=O)ccc(OCC(=O)O)c2CCC)ccc(C(C)=O)c1O    -1
5. CCCc1c(OCCCOc2cccc(OCC(=O)O)c2)ccc(C(C)=O)c1O    -1
6. CCCc1c(OCCOCCOCCOc2c(C(C)=O)ccc(OCCCC(=O)O)c2CCC)ccc(C(C)=O)c1O    -1
7. CCCc1c(OCCCCOCCCCOc2c(C(C)=O)ccc(OCC(=O)O)c2CCC)ccc(C(C)=O)c1O    -1
8. CCCc1c(OCCOCCOc2c(C(C)=O)ccc(OCC(=O)O)c2CCC)ccc(C(C)=O)c1O    -1
9. CCCc1c(OCC(O)COc2ccc3c(=O)cc(C(=O)O)oc3c2CCC)ccc(C(C)=O)c1O (centres undefined)    1
10. CCCc1c(OCCCOCCCOc2c(C(C)=O)ccc(OCCCC(=O)O)c2CCC)ccc(C(C)=O)c1O    1

Please indicate if the recorded inhibition in vivo at 10 mg/kg for "CCCc1c(OCCCCCOc2ccc3ccc(OCC(=O)O)cc3c2C(C)=O)ccc(C(C)=O)c1O" meets or exceeds 90%.
-1

Please indicate if the recorded inhibition in vivo at 10 mg/kg for "CCCc1c(OCCCOc2ccc3ccc(OCCCC(=O)O)cc3c2C(C)=O)ccc(C(C)=O)c1O" meets or exceeds 90%.
1
